- System: Escherichia coli
- Assay: minimum inhibitory concentration (MIC)
- Measurement parameters: isolate (source animal id): 100
Readings of minimum inhibitory concentration for the listed compounds
Outcome measure: minimum inhibitory concentration

1) CCC[C@@H]1C[C@@H](C(=O)N[C@@H]([C@H]2O[C@H](SC)[C@H](O)[C@@H](O)[C@H]2O)[C@H](C)Cl)N(C)C1 [Clindamycin]	> 16 µg/mL
2) CNC(C)C1CCC(N)C(OC2C(N)CC(N)C(OC3OCC(C)(O)C(NC)C3O)C2O)O1 (configuration not stated) [Gentamicin]	≤ 1 µg/mL
3) COc1cc(NS(=O)(=O)c2ccc(N)cc2)nc(OC)n1 [sulfadimethoxine]	> 256 µg/mL
4) CC1(C)S[C@@H]2[C@H](NC(=O)Cc3ccccc3)C(=O)N2[C@H]1C(=O)O [Penicillin]	> 8 µg/mL
5) CC[C@H]1OC(=O)C[C@@H](O)[C@H](C)[C@@H](O[C@@H]2O[C@H](C)[C@@H](O)[C@H](N(C)C)[C@H]2O)[C@@H](CCN2CCCCC2)C[C@@H](C)C(=O)/C=C/C(C)=C/[C@@H]1CN1CCCCC1 [Tildipirosin]	2 µg/mL
6) CC[C@H]1OC(=O)C[C@@H](O)[C@H](C)[C@@H](O[C@@H]2O[C@H](C)[C@@H](O[C@H]3C[C@@](C)(O)[C@@H](O)[C@H](C)O3)[C@H](N(C)C)[C@H]2O)[C@@H](CC=O)C[C@@H](C)C(=O)/C=C/C(C)=C/[C@@H]1CO[C@@H]1O[C@H](C)[C@@H](O)[C@@H](OC)[C@H]1OC [Tylosin]	> 32 µg/mL
7) CCCNC[C@]1(O)[C@H](C)O[C@@H](O[C@H]2[C@H](C)[C@@H](O[C@@H]3O[C@H](C)C[C@H](N(C)C)[C@H]3O)[C@](C)(O)C[C@@H](C)CN[C@H](C)[C@@H](O)[C@](C)(O)[C@@H](CC)OC(=O)[C@@H]2C)C[C@@]1(C)OC [Tulathromycin]	≤ 8 µg/mL

----------
- Tested on: Mannheimia haemolytica
- Assay: minimum inhibitory concentration (MIC)
- Measurement parameters: isolate (source animal id): 135
Readings of minimum inhibitory concentration for the listed compounds
Outcome measure: minimum inhibitory concentration

1. CO/N=C(\C(=O)N[C@@H]1C(=O)N2C(C(=O)O)=C(CSC(=O)c3ccco3)CS[C@H]12)c1csc(N)n1	≤ 0.25 µg/mL
2. CN[C@@H]1[C@H](O)[C@H](NC)[C@H]2O[C@@]3(O)C(=O)C[C@@H](C)O[C@H]3O[C@@H]2[C@H]1O	> 64 µg/mL
3. CN(C)[C@@H]1C(O)=C(C(N)=O)C(=O)[C@@]2(O)C(O)=C3C(=O)c4c(O)cccc4[C@@](C)(O)[C@H]3C[C@@H]12	> 8 µg/mL
4. NC[C@@H]1O[C@H](O[C@H]2[C@@H](O)[C@H](O[C@@H]3[C@@H](O)[C@H](N)C[C@H](N)[C@H]3O[C@H]3O[C@H](CN)[C@@H](O)[C@H](O)[C@H]3N)O[C@@H]2CO)[C@H](N)[C@@H](O)[C@@H]1O	> 32 µg/mL
5. CCCN1C[C@H](C)[C@@H](O)[C@](C)(O)[C@@H](CC)OC(=O)[C@H](C)[C@@H](O[C@H]2C[C@@](C)(OC)[C@@H](O)[C@H](C)O2)[C@H](C)[C@@H](O[C@@H]2O[C@H](C)C[C@H](N(C)C)[C@H]2O)[C@](C)(O)C[C@H]1C	> 8 µg/mL
